TESTED ON: Human recombinant Vanin-1 (VNN1) (Homo sapiens, UniProt O95497)
Sequence (O95497 22-491): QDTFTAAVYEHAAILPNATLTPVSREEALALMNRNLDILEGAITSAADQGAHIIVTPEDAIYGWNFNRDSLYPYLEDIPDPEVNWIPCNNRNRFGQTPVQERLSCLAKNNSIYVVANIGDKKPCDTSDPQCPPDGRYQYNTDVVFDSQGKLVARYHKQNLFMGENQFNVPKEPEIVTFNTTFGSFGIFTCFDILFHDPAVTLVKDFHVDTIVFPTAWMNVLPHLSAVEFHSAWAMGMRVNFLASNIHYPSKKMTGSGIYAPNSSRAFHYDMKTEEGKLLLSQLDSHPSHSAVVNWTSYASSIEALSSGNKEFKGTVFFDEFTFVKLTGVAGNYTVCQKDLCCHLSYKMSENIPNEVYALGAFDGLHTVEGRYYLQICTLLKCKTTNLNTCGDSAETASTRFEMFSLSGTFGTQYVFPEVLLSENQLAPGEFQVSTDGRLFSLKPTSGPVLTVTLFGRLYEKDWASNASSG
TEST: Vanin-1 enzymatic assay (fluorescence intensity, Pantothenate-AMC substrate)
STUDY CONDITIONS: purified recombinant human Vanin-1 0.5 nM; 30 min preincubation at 30° C.; Pantothenate-AMC 30 μM, 60 min
Answer each item with its documented log10 IC50.
Would you kindly interpret these values as log10 of IC50 expressed in nM?

Guide cases for log10 IC50, answers given:
Lookup: Give log10 IC50 for CC(C)(CO)[C@@H](O)C(=O)NCCC(=O)C(=O)NCc1ccccc1F
Found: 1.48

Lookup: Give log10 IC50 for CC(C)(CO)[C@@H](O)C(=O)NCCC(=O)C(=O)NCc1cccc(S(=O)(=O)N2CCCCC2)c1
Found: 2.23

Lookup: Give log10 IC50 for CC(C)(CO)[C@@H](O)C(=O)NCCC(=O)C(=O)NCc1ccc(-c2ccc(S(C)(=O)=O)cc2)cc1
Found: 1.00

Lookup: Give log10 IC50 for CC(C)(CO)[C@@H](O)C(=O)NCCC(=O)C(=O)NCc1ccc(Oc2ccncc2)cc1
Found: 1.00

Lookup: Give log10 IC50 for CC(C)(CO)[C@@H](O)C(=O)NCCC(=O)C(=O)NCc1ccc(S(C)(=O)=O)cc1
Found: 1.00

Look at each compound and report its log10 IC50.
1. CC(C)(CO)[C@@H](O)C(=O)NCCC(=O)C(=O)NCCOc1ccccc1
2. CC(C)(CO)[C@@H](O)C(=O)NCCC(=O)C(N)=O
3. CC(C)(CO)[C@@H](O)C(=O)NCCC(=O)C(=O)NC1CCCCC1
4. CC(C)(CO)[C@@H](O)C(=O)NCCC(=O)C(=O)NCCc1cccs1
5. CC(C)(CO)[C@@H](O)C(=O)NCCN(CCc1ccccc1)C(=O)CCl
6. CCC(=O)CCNC(=O)[C@H](O)C(C)(C)CO
7. CC(C)(CO)[C@@H](O)C(=O)NCCC(=O)C(=O)NCC1CCCO1 (stereo partly shown)
8. C=CC(=O)CCNC(=O)[C@H](O)C(C)(C)CO

Found:
[2.53, 2.92, 3.53, 1.70, 3.61, 4.31, 2.85, 3.97]

Look at each compound and report its log10 IC50.
1. CC(C)(CO)[C@@H](O)C(=O)NCCC(=O)C(=O)NCc1ccc(-c2ccccc2)cc1
2. CC(C)(CO)[C@@H](O)C(=O)NCCC(=O)C(=O)N1CCC(Nc2cccc(S(=O)(=O)C(F)(F)F)c2)CC1
3. COC(=O)CNC(=O)C(=O)CCNC(=O)[C@H](O)C(C)(C)CO
4. CC(C)(CO)[C@@H](O)C(=O)NCCC(=O)C(=O)NCc1ccc(OCCN2CCOCC2)cc1
5. CC(C)(CO)[C@@H](O)C(=O)NCCC(=O)C(=O)NCc1cccc(OC(F)(F)F)c1

Found:
[1.30, 4.10, 3.37, 1.70, 1.70]

Source listed as patent US9585891B2.
